- measuredOn: rat liver DHFR (Rattus norvegicus, UniProt Q920D2)
- Sequence (Q920D2 whole entry): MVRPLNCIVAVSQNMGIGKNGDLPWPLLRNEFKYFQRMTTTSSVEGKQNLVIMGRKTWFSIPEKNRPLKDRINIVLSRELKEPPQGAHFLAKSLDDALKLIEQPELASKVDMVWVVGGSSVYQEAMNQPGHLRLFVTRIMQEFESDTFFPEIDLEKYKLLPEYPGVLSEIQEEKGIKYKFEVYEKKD
- testProtocol: Inhibition of rat liver DHFR (literature assay)
- testSettings: read-out: IC50 (μM) Rat liver, compounds 3a-k
Consider the cut-off 20 µM. If the recorded IC50 is strictly smaller, the label is Yes; if not, the label is No.

Completed entries (count: 2):
CCCCCCCOc1ccc(OC)c(Cc2cnc(N)nc2N)c1 Yes
COc1ccc(OCCCC(=O)O)cc1Cc1cnc(N)nc1N Yes

Q: Problem: For the compound COc1ccc(OCCCCCC(=O)O)cc1Cc1cnc(N)nc1N , is IC50 under 20 µM?
Result: Yes

Q: Below 20 µM on IC50? Entry CCCCCCCCCOc1ccc(OC)c(Cc2cnc(N)nc2N)c1
Result: No

Q: Quick check: does CCCCCCCCOc1ccc(OC)c(Cc2cnc(N)nc2N)c1 have IC50 under 20 µM?
Result: No

Q: Hello, is IC50 of the following compound strictly smaller than 20 µM? CCCCCCOc1ccc(OC)c(Cc2cnc(N)nc2N)c1
Result: No

* * *

- measuredOn: M. avium DHFR (Mycobacterium avium)
- Sequence (O30463 1-181): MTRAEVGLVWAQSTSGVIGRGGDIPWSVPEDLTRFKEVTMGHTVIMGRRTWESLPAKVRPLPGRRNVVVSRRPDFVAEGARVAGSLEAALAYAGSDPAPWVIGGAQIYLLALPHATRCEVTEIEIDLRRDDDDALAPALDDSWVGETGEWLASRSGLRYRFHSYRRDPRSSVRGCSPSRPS
- testProtocol: Inhibition of M. avium DHFR (literature assay)
- Assay type: biochemical
- testSettings: compounds 3a-k
valueKind: IC50 (µM)
Express it in µM; write the number only.

COc1ccc(OCCCC(=O)O)cc1Cc1cnc(N)nc1N 0.0048
CCCCCCOc1ccc(OC)c(Cc2cnc(N)nc2N)c1 0.39
CCCCCOc1ccc(OC)c(Cc2cnc(N)nc2N)c1 0.31
COc1ccc(OCCCCCCC(=O)O)cc1Cc1cnc(N)nc1N 0.19

# compound CCCCCCCOc1ccc(OC)c(Cc2cnc(N)nc2N)c1 ; its IC50 = 0.89

* * *

- measuredOn: T. gondii DHFR (Toxoplasma gondii, UniProt Q07422)
- Sequence (Q07422 1-610): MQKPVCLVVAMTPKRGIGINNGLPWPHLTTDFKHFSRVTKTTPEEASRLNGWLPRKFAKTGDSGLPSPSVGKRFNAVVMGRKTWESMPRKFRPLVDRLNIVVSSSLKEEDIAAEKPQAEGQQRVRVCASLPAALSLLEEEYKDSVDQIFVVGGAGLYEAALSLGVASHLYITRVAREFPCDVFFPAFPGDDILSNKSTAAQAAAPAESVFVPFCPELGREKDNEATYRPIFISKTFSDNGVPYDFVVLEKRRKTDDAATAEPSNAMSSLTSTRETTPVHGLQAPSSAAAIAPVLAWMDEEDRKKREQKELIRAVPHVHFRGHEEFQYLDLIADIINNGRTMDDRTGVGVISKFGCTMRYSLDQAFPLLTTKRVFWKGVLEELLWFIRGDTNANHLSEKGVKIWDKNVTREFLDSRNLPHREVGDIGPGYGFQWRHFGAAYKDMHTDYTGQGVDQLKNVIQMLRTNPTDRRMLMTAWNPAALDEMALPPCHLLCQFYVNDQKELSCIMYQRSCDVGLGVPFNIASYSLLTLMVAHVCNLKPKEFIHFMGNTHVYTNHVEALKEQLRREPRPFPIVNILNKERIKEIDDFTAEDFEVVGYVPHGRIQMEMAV
- Type: biochemical
- testSettings: compounds 3a-k
valueKind: IC50 (µM)
Entry rule: numbers only, all in µM.

CCCCCCCCCOc1ccc(OC)c(Cc2cnc(N)nc2N)c1 32
CCCCCCOc1ccc(OC)c(Cc2cnc(N)nc2N)c1 9.2
CCCCCCCCOc1ccc(OC)c(Cc2cnc(N)nc2N)c1 15

Just so you know, measured IC50 for COc1ccc(OCCCC(=O)O)cc1Cc1cnc(N)nc1N came out at 0.18
